# Study system: GABA receptor subunit (Musca domestica)
# Sequence (whole entry): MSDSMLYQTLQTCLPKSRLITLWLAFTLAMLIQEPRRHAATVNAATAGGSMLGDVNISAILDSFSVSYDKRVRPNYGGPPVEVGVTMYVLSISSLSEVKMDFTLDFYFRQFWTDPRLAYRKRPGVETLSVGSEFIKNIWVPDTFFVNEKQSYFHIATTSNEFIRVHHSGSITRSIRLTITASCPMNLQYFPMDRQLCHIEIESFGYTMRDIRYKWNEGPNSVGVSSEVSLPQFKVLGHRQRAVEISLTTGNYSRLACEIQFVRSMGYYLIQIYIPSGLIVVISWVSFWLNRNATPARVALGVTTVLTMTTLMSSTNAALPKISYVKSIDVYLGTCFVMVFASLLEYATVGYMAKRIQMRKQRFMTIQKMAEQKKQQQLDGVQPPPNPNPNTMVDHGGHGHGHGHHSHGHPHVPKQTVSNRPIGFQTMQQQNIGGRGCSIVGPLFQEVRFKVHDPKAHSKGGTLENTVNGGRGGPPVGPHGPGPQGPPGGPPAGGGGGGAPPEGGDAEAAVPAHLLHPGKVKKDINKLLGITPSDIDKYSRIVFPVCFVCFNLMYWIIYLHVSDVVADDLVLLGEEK
# Assay method text: Displacement of [3H]TBOB binding to GABA receptor in Musca domestica (house fly) heads homogenates assessed as [3H]TBOB binding at 500 uM incubated for 90 min by scintillation counting method
Measured endpoint: Activity (%)

| Compound | Measured endpoint | Numeric result |
| --- | --- | --- |
| CC12CCC(CC1)C(C)(C)O2 | Activity | 122 |
| CC12CCC(CC1=O)C2(C)C (configuration not stated) | Activity | 70 |
| C=CC(C)(O)CCC=C(C)C (configuration not stated) | Activity | 124 |
| Cc1ccc(C(C)C)cc1 | Activity | 90 |
| CCC(=O)OCCc1ccccc1 [PHENETHYL PROPIONATE] | Activity | 95 |
| O=Cc1ccc2c(c1)OCO2 | Activity | 93 |
| CC(C)C12CCC(C)(CC1)O2 | Activity | 117 |
| Cc1ccc(C(C)C)cc1O | Activity | 156 |
| CC1CCC(C(C)C)C(O)C1 (configuration not stated) | Activity | 80 |
| C=CCc1ccc2c(c1)OCO2 | Activity | 43 |
| CC(C)=CCC[C@@H](C)CC=O | Activity | 92 |
| COC(=O)c1ccccc1O [METHYL SALICYLATE] | Activity | 103 |
| Cc1ccc(C(C)C)c(O)c1 | Activity | 180 |
| C=C(C)C1CCC2(C)OC2C1 (configuration not stated) [LIMONENE OXIDE] | Activity | 141 |
| CC(C)=CCCC(C)CC(=O)O (configuration not stated) | Activity | 138 |
| O=C(O)/C=C/c1ccccc1 | Activity | 101 |
| CC(C)[C@H]1CC[C@H](C)CC1=O (relative stereo) | Activity | 86 |
| C=CCc1ccc(O)c(OC)c1 | Activity | 88 |
| C=C(C)[C@H]1CC=C(C)CC1 | Activity | 86 |
| COc1cc(C=O)ccc1O | Activity | 82 |
| CC(C)=C1CC[C@@H](C)CC1=O | Activity | 132 |
| CC1=CC[C@@H](C(C)(C)O)CC1 | Activity | 95 |
